molecular target: CaBzz1-D1; test: SPOT peptide array binding signal intensity (averaged, normalized) (arbitrary units (background-subtracted, floor 0; scale differs between SH3 domains)); higher = stronger binding of the SH3 domain to the peptide
Kind request: treat 600 as inclusive, so SPOT peptide array binding signal intensity at 600 or higher is Met, anything lower is Not met.

Please review the entries below; each comes with its answer.
Q) Identify whether the reported SPOT peptide array binding signal intensity of the following binder is 600 or greater: APKHAPPPVPNETDN
A) Met

Q) Identify whether the reported SPOT peptide array binding signal intensity of the following binder is 600 or greater: LASNSPPVYPKRIRH
A) Not met

Q) Identify whether the reported SPOT peptide array binding signal intensity of the following binder is 600 or greater: VGFRLALKFPSRITG
A) Met

Q) Identify whether the reported SPOT peptide array binding signal intensity of the following binder is 600 or greater: AIPPPVPNRPGGTTN
A) Not met

Q) Identify whether the reported SPOT peptide array binding signal intensity of the following binder is 600 or greater: SPLGAPPPPPHKDHL
A) Not met

New cases:
Q) Identify whether the reported SPOT peptide array binding signal intensity of the following binder is 600 or greater: DFTLPPPPPPPGLDE
A) Not met

Q) Identify whether the reported SPOT peptide array binding signal intensity of the following binder is 600 or greater: DTFLPPPPPPPSNFE
A) Not met
